The compounds below have reported IC50 for Dihydrofolate reductase (Pneumocystis carinii, UniProt P16184).
Please give a number only; it is taken to be in µM.

Please look at this compound and report its IC50: COc1cc(CNc2ccc3nc(N)nc(N)c3c2)cc(OC)c1OC
6.8

Please look at this compound and report its IC50: COc1cc(CNc2ccc3nc(N)nc(N)c3c2)cc(OC)c1
2.2

Please look at this compound and report its IC50: COc1cc(CN(C)c2ccc3nc(N)nc(N)c3c2)cc(OC)c1
0.0238

Please look at this compound and report its IC50: COc1ccc(OC)c(CNc2ccc3nc(N)nc(N)c3c2)c1
4.6

Please look at this compound and report its IC50: CN(Cc1cccc2c1CCCC2)c1ccc2nc(N)nc(N)c2c1
0.017

Please look at this compound and report its IC50: COc1cc(OC)c(OC)cc1CNc1ccc2nc(N)nc(N)c2c1
5.4

Please look at this compound and report its IC50: COc1ccc(CNc2ccc3nc(N)nc(N)c3c2)c(OC)c1
4.4

----------
SYSTEM_TESTED: Bifunctional dihydrofolate reductase-thymidylate synthase (Toxoplasma gondii, UniProt Q07422)
Sequence (Q07422 whole entry): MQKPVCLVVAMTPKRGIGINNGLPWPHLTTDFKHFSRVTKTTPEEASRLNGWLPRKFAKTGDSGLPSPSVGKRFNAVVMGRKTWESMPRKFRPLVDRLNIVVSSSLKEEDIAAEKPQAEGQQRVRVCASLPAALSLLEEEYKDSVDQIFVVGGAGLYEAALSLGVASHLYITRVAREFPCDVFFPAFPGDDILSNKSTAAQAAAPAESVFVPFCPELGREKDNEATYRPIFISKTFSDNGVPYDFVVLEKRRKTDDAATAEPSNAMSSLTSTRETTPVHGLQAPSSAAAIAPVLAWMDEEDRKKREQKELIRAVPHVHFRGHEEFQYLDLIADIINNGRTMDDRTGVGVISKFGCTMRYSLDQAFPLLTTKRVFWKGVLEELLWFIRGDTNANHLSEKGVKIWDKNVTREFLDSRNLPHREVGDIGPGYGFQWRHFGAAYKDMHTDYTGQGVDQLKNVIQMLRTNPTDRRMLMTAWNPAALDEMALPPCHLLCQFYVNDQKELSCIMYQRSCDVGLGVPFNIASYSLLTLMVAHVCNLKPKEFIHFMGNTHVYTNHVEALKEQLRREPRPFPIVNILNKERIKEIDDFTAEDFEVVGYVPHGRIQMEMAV
TEST_SUMMARY: Inhibition of recombinant Dihydrofolate reductase from Toxoplasma gondii (tgDHFR)
METRIC: log10 of IC50 (log10 of the value in nM)
All values: base-10 log of IC50 in nM.

Please look at this molecule and report its log10 of IC50: COc1ccc(OC)c(CN(C)c2ccc3nc(N)nc(N)c3c2)c1
0.59

Please look at this molecule and report its log10 of IC50: COc1cc(OC)c(OC)cc1CNc1ccc2nc(N)nc(N)c2c1
2.73

Please look at this molecule and report its log10 of IC50: COc1ccc(OC)c(CNc2ccc3nc(N)nc(N)c3c2)c1
3.04

Please look at this molecule and report its log10 of IC50: COc1ccc(CN(C)c2ccc3nc(N)nc(N)c3c2)c(OC)c1
0.59

Please look at this molecule and report its log10 of IC50: COc1ccc(CN(C)c2ccc3nc(N)nc(N)c3c2)c(OC)c1OC
0.73

Please look at this molecule and report its log10 of IC50: COc1ccc(CNc2ccc3nc(N)nc(N)c3c2)c(OC)c1OC
2.91

----------
Assign pIC50 to each entry below.
SYSTEM_TESTED: Bifunctional dihydrofolate reductase-thymidylate synthase (Toxoplasma gondii, UniProt Q07422)
TEST_SUMMARY: Inhibition of recombinant Dihydrofolate reductase from Toxoplasma gondii (tgDHFR)
Notebook: values listed as pIC50 are -log10 of the concentration (mol/L).

Please look at this molecule and report its pIC50: COc1cc(CNc2ccc3nc(N)nc(N)c3c2)cc(OC)c1OC
6.04

Please look at this molecule and report its pIC50: COc1ccc(CNc2ccc3nc(N)nc(N)c3c2)c(OC)c1
6.11

Please look at this molecule and report its pIC50: COc1cc(CN(C)c2ccc3nc(N)nc(N)c3c2)cc(OC)c1
8.33

Please look at this molecule and report its pIC50: COc1cc(CNc2ccc3nc(N)nc(N)c3c2)cc(OC)c1
6.08
